Test system: NCI-H23 complex spheroids with HUVEC/MSC, viability
Experiment summary: Anticancer human tumor NCI-H23 cell line growth inhibition [RAS];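 further: spheroids exposed to compound for 7 days; 100% = DMSO vehicle control viability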
Conditions: second compound 1 µM; first compound 0.1 µM; active compounds read low

Compound	viability, T/C
Nc1ccn(C2OC(CO)C(O)C2(F)F)c(=O)n1 (stereo not given) + C=CC(=O)N1CCN(c2nc(OCC3CCCN3C)nc3c(F)c(-c4nc(N)cc(C)c4C(F)(F)F)c(Cl)cc23)C(C)C1	2.34%
O=C(c1ccc(F)c(F)c1Nc1ccc(I)cc1F)N1CC(O)([C@@H]2CCCCN2)C1 + C=CC(=O)N1CCN(c2nc(OCC3CCCN3C)nc3c(F)c(-c4nc(N)cc(C)c4C(F)(F)F)c(Cl)cc23)C(C)C1	32.7%
CC(C)NCC(C(=O)N1CCN(c2ncnc3c2C(C)CC3O)CC1)c1ccc(Cl)cc1 (stereo not given) + C#Cc1c(F)ccc2cc(O)cc(-c3ncc4c(N5CC6CCC(C5)N6)nc(OCC56CCCN5CC(F)C6)nc4c3F)c12	101%
CC(C)NCC(C(=O)N1CCN(c2ncnc3c2C(C)CC3O)CC1)c1ccc(Cl)cc1 (stereo not given) + C=CC(=O)N1CCN(c2nc(OCC3CCCN3C)nc3c(F)c(-c4nc(N)cc(C)c4C(F)(F)F)c(Cl)cc23)C(C)C1	37.1%
Nc1ccn(C2OC(CO)C(O)C2(F)F)c(=O)n1 (stereo not given) + C#Cc1c(F)ccc2cc(O)cc(-c3ncc4c(N5CC6CCC(C5)N6)nc(OCC56CCCN5CC(F)C6)nc4c3F)c12	5%
NC1c2ccccc2OC12CCN(c1cnc3c(N4CCCc5ncccc54)n[nH]c3n1)CC2 (stereo not given) + C=CC(=O)N1CCN(c2nc(OCC3CCCN3C)nc3c(F)c(-c4nc(N)cc(C)c4C(F)(F)F)c(Cl)cc23)C(C)C1	24.6%
CCN1CCN(Cc2ccc(Nc3ncc(F)c(-c4cc(F)c5nc(C)n(C(C)C)c5c4)n3)nc2)CC1 + C=CC(=O)N1CCN(c2nc(OCC3CCCN3C)nc3c(F)c(-c4nc(N)cc(C)c4C(F)(F)F)c(Cl)cc23)C(C)C1	20.1%
C=CC(=O)Nc1cc(Nc2nccc(-c3cn(C)c4ccccc34)n2)c(OC)cc1N(C)CCN(C)C + C=CC(=O)N1CCN(c2nc(OCC3CCCN3C)nc3c(F)c(-c4nc(N)cc(C)c4C(F)(F)F)c(Cl)cc23)C(C)C1	34.9%
CCC(CC)c1cc(NC2CCC(N)C2)n2nccc2n1 (stereo not given) + C#Cc1c(F)ccc2cc(O)cc(-c3ncc4c(N5CC6CCC(C5)N6)nc(OCC56CCCN5CC(F)C6)nc4c3F)c12	121%
C[C@@H](NC(=O)c1ncnc(N)c1Cl)c1ncc(C(=O)Nc2cc(C(F)(F)F)c(Cl)cn2)s1 + C#Cc1c(F)ccc2cc(O)cc(-c3ncc4c(N5CC6CCC(C5)N6)nc(OCC56CCCN5CC(F)C6)nc4c3F)c12	96.2%

---

Test system: NCI-H23 complex spheroids with HUVEC/MSC, viability
Experiment summary: Anticancer human tumor NCI-H23 cell line growth inhibition [RAS];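 further: spheroids exposed to compound for 7 days; 100% = DMSO vehicle control viability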
Conditions: second compound 0.0949 µM; first compound 0.1 µM; active compounds read low

Compound	Unit annotation	viability, T/C
NC1c2ccccc2OC12CCN(c1cnc3c(N4CCCc5ncccc54)n[nH]c3n1)CC2 (centres undefined) + CCn1c(-c2cccnc2C(C)OC)c2c3cc(ccc31)N1CCOC(CC(NC(=O)C(C(C)C)N(C)C(=O)C3(F)CCN(C(=O)C#CC(C)(C)N(C)C)CC3)C(=O)N3CCCC(N3)C(=O)OCC(C)(C)C2)C1	%	12.7
C=CC(=O)Nc1cc(Nc2nccc(-c3cn(C)c4ccccc34)n2)c(OC)cc1N(C)CCN(C)C + CCn1c(-c2cccnc2C(C)OC)c2c3cc(ccc31)N1CCOC(CC(NC(=O)C(C(C)C)N(C)C(=O)C3(F)CCN(C(=O)C#CC(C)(C)N(C)C)CC3)C(=O)N3CCCC(N3)C(=O)OCC(C)(C)C2)C1	%	26.7
C=CC(=O)N1CCN(c2nc(OCC3CCCN3C)nc3c(F)c(-c4nc(N)cc(C)c4C(F)(F)F)c(Cl)cc23)C(C)C1 (centres undefined) + CCn1c(-c2cccnc2C(C)OC)c2c3cc(ccc31)N1CCOC(CC(NC(=O)C(C(C)C)N(C)C(=O)C3(F)CCN(C(=O)C#CC(C)(C)N(C)C)CC3)C(=O)N3CCCC(N3)C(=O)OCC(C)(C)C2)C1	%	27.3
Cc1nc(N2CCC3(CC2)COC(C)C3N)c(CO)nc1Sc1ccnc(N)c1Cl (centres undefined) + CCn1c(-c2cc(N3CCN(C)CC3)cnc2C(C)OC)c2c3cc(ccc31)-c1csc(n1)CC(NC(=O)C1CC1C)C(=O)N1CCCC(N1)C(=O)OCC(C)(C)C2	%	17.8
